Data provenance: the supplement of paper PMC8612539

Test system: Histophilus somni
assay-protocol: minimum inhibitory concentration (MIC)
cond: isolate (source animal id): 219

>  <sample-smiles>
CCN1CCN(c2cc3c(cc2F)c(=O)c(C(=O)O)cn3C2CC2)CC1

>  <system-tested>
Histophilus somni

>  <minimum inhibitory concentration>
≤ 0.12 µg/mL

$$$$
>  <sample-smiles>
CC[C@H]1OC(=O)C[C@@H](O)[C@H](C)[C@@H](O[C@@H]2O[C@H](C)[C@@H](O[C@H]3C[C@@](C)(O)[C@@H](O)[C@H](C)O3)[C@H](N(C)C)[C@H]2O)[C@@H](CC=O)C[C@@H](C)C(=O)/C=C/C(C)=C/[C@@H]1CO[C@@H]1O[C@H](C)[C@@H](O)[C@@H](OC)[C@H]1OC

>  <system-tested>
Histophilus somni

>  <minimum inhibitory concentration>
8 µg/mL

$$$$
>  <sample-smiles>
CN1C[C@@H]2C[C@H]1CN2c1cc2c(cc1F)c(=O)c(C(=O)O)cn2C1CC1

>  <system-tested>
Histophilus somni

>  <minimum inhibitory concentration>
≤ 0.12 µg/mL

$$$$
>  <sample-smiles>
CO/N=C(\C(=O)N[C@@H]1C(=O)N2C(C(=O)O)=C(CSC(=O)c3ccco3)CS[C@H]12)c1csc(N)n1

>  <system-tested>
Histophilus somni

>  <minimum inhibitory concentration>
≤ 0.25 µg/mL

$$$$
>  <sample-smiles>
COc1cc(Cc2cnc(N)nc2N)cc(OC)c1OC.Cc1cc(NS(=O)(=O)c2ccc(N)cc2)no1

>  <system-tested>
Histophilus somni

>  <minimum inhibitory concentration>
≤ 2 µg/mL

$$$$
